- Test Name: soluble fraction after stress (log2 fold change); higher = more stays soluble; pooled small domains, quantitative proteomics
- Test Parameters: stress: 50 degC
Classification field: enter yes for soluble fraction (log2) values not below -0.4, no for values below it.

Inquiry: soluble fraction (log2) >= -0.4 for HMNENDENLRQQAIDASKEVRRWGEPVTLPPMNAHDRRIIHITLEGESDLQTESTGEGNFKSVVISLK ?
Reply text: yes

Inquiry: Given HMNDNTAINEFKKMVFTRMVHLQIDNAELSKLSGVTNSKILALKYGNSNTLKLGDIVKVAKTLNINLNDL , state whether its soluble fraction (log2) is at least -0.4.
Reply text: no

Inquiry: Does the reported soluble fraction (log2) for HMNNFTQSALDTIDGIGKRRKKLLLNHFGSVKLIENASIEDIKKIDGISDLVANKIYNFFNKN fall at or above the -0.4 mark?
Reply text: no

Inquiry: Please indicate if the recorded soluble fraction (log2) for HMANSANARKSLVSKLIAGGKIASQSDLVKALKKQGIVVTQGTASRDLEDIGAIRVRNSEGEIVYALT meets or exceeds -0.4.
Reply text: yes

Inquiry: Exam item: decide whether the reported soluble fraction (log2) for HMVFSNLGSRGEEVRQIQTKLKELGYLQGNVDGIYGNQTKQAVTAFQRDHGLSADGIAGEKTLAALGIG is at least -0.4.
Reply text: yes

Inquiry: Check if soluble fraction (log2) >= -0.4 (inclusive). Item: HMQIDDSVELSAIVEKLLAANPEQVEQLKNGKTKVLGYFVGLAMKETQGRANPQKVNELIQTHL
Reply text: yes

Inquiry: hey, is soluble fraction (log2) for this one >= -0.4? HMHSIFPVIRSTSFPTKSNDGELFITSDHTAETRIYYALDLGNTYRLIDQKVMNEINLTESLVKETARF
Reply text: no

Inquiry: Determine whether measured soluble fraction (log2) meets or exceeds -0.4 for HMSMHVHTPNPDFKPSNTNALQEGQLVEHPKFGFGKVQKIETEGLNKKASIQFEHFGEKTLLLSFAKLRII
Reply text: yes

Inquiry: Quick check: does HMLKIAENIYQRRKEKNITQEELADFMMVTKASVSKWETGQSYPDILLLPKLATFFNVTVDELIGYEPQ have soluble fraction (log2) greater than or equal to -0.4?
Reply text: no

Inquiry: hey, is soluble fraction (log2) for this one >= -0.4? HMEYYDDEELDRFRGVEADAYDEDAVNEFRDVLYTLQEIEVAGWLRSLQLRAINLPDELKDEAFLI
Reply text: no

Inquiry: Does HMEPREALDGLISERGETYASISRLLGRNSAYIQQFIKRGSPARLDQSDIALLALHFDVPVEMLGGKE have a reported soluble fraction (log2) of at least -0.4?
Reply text: no

Inquiry: Tell me whether soluble fraction (log2) is at least -0.4 here: HMTPDGNATVWSANGYGVRLRTGPGKGYAIIGVYSVGTTVKVLERGPAGGWDHIQVGSRVGYMMNEFLHYY
Reply text: no

----------
- Test Name: soluble fraction after stress (log2 fold change); higher = more stays soluble; pooled small domains, quantitative proteomics
- Test Parameters: stress: 50 degC
Kindly state soluble fraction (log2) for each of the entries shown.
Write the value as a bare number.

Inquiry: Let me know recorded soluble fraction (log2) for HMSLAATLSPREIDTVRLIAVGSSNKEIARQLGIAETTVKIHVQHILRKLNLTSRVQVAVFANAEGII , thanks.
Reply text: -0.801

Inquiry: Provide one value: measured soluble fraction (log2) of HMQADKYKSYTATDFLKDKDFLRWQLFNGEEDMLFWGRVIEEYPALRSRVEEGIVLYKDNIR
Reply text: -0.981

Inquiry: Provide only the value of recorded soluble fraction (log2) for HMIGVIVDEVDPDSSLKSGDIITEVNREVILNIDDFVGLVEQIQKTGRSSLLLKILRDKKSLWVTIQFV
Reply text: 0.0885

Inquiry: Consider the sequence HMRRSVYQANVLDAIKHLVDQNELATTKAIAEYIGDDYQGNVSRAIRELLADRKIKKLPKVGVLQPYEA and give its recorded soluble fraction (log2).
Reply text: -0.285

Inquiry: Fill in soluble fraction (log2) for record HMGVSEIGSPAWMESKLVTLASYEGSLDGLRTLWGGVAQHRARIPVESWDRLFAAKEEGKARLVKLGRT
Reply text: -1.19

Inquiry: Tell us which soluble fraction (log2) value is on record for HMIISPKKLEYRQRIINALGDRKMSLNELSKAMGYKGITTKLSFTVDDMIKSGVIEKVMVGAYAKLHIP
Reply text: -1.65

Inquiry: Query soluble fraction (log2) for HMLEAMDSDEAAKVIEQIVNERADFVRSKGMGAIGPLMGPVMGALRGKVDGKQANELLTAAIKKLL
Reply text: 0.273

Inquiry: Answer with reported soluble fraction (log2) of HMTTQTGTVKWFNEGKGFGFIAPDDGGKDLFAHFKEIQGTGFKTLAENQRVEFEVTQGQKGPQASKI
Reply text: -0.0807

Inquiry: Fill in reported soluble fraction (log2) for this entry: HMTEKIEWYKEVLELEPNSKVFFPLARMLAEEQRFDEAVAVLEHGLERHGEFLEARLFFIELLHET
Reply text: -3.69

Inquiry: Give recorded soluble fraction (log2). HMEKILSYKALMNDAGKRIDQFLANNEKDISRTRIKSLILEGSLKLDNNIINDPSYKIKENDVFTLFIPEA
Reply text: -0.429

Inquiry: Give the value of soluble fraction (log2) reported for the following: HMGDWEDFWEKEARRRKLSLDYQVVRSLSRWSREYDWGEEDVEQFLSQFPEGETVKMEDVELYFE
Reply text: -1.12

Inquiry: Recall and state the measured soluble fraction (log2) for HMIDIGSKIKKLRSKKSIEIGKKYTGAMLANELGISRSYLGDIESGRTVPNEIILGKIADIFDVDIYELIG .
Reply text: -0.256

Inquiry: Give me measured soluble fraction (log2), please, for this sequence: HMFWRKIDFYGLNLSTYRNIINIGSDYNYIYLDLGNIYKILNPITGKIIEEQDLVMNIDNINWSS
Reply text: -0.0971

Inquiry: Quote soluble fraction (log2) reported for HMDLTPEEQMDLYRLLDSLPTEERTYLILHYFEERSFPEMAEILSMPEAKLKSRFYRILHRLRAHL please.
Reply text: -2.56

Inquiry: Give me measured soluble fraction (log2), please, for this sequence: HMTSVAYVIDRINKIQNVYSELEALGLKDEFEKILSNIEDLSKKDIREIKTLLKTKGVIKNLDDLNVKL
Reply text: -0.0059

----------
- Test Name: soluble fraction after stress (log2 fold change); higher = more stays soluble; pooled small domains, quantitative proteomics
- Test Parameters: stress: 50 degC
Response key: true (1) means soluble fraction (log2) >= -0.3; false (0) means soluble fraction (log2) < -0.3.

Inquiry: Can HMNYAVTAARRESILNAALEIFGKSGYNGSSVKQVALAVGMTEAGVLHHFGTKSNLLIEVLRV be said to have soluble fraction (log2) at or above -0.3?
Reply text: true (1)

Inquiry: Decide: is the reported value of soluble fraction (log2) for HMTPDLSEFKERLRQILPGEPIEVRTANDGIVLSGTVTSIAALDRALDLAERYAPDKVSNLLSVG equal to or greater than -0.3?
Reply text: true (1)

Inquiry: Item HMLDLVSIGKRIKAERQKNGLTQEALAERIEVSAHYVYELERGLKAMSVPILLRMSEVLHTSTDYLLF with soluble fraction (log2) of -0.3 or above?
Reply text: false (0)

Inquiry: Is the recorded value of soluble fraction (log2) equal to or greater than -0.3 for this sequence? HMTEELLNQRKETMLALLNDPTYVPMKLKELAMLLNLSRDQRDELREVMESLEQDGKVILTKRGKYKIP
Reply text: true (1)

Inquiry: Is reported soluble fraction (log2) greater than or equal to -0.3 here: HMRDKSITFSEFVKLLDEGQIQKVTLTGNEILGTQKSGDKFRTYAPPQYEGLGNKLVERSVEVTAKE
Reply text: true (1)

Inquiry: Quick check, soluble fraction (log2) >= -0.3? HMSSIDLTARSGRAALKHRLSLLGYEFSKIELETLYVRFIELADEKKLLHDEDLIELVKEKN
Reply text: false (0)

Inquiry: Is soluble fraction (log2) for HMDVKPWERQEGESAKAFEAFTIYAGLGADRSLRAVAQQLGKSKTLMDRWSSTYSWVARAAEYDADLQRK at or above -0.3?
Reply text: false (0)

Inquiry: Check this sequence for soluble fraction (log2) at or above -0.3: HMGNEMQVPNVAGKTVDEAIEIFNNMGLKVAAENKYAQSDDVKEGDVVKTDPSSGRNVKKGSEITLYISQG
Reply text: true (1)

Inquiry: # check: soluble fraction (log2) of HMAIGSRLKVTTDATNLNIRSTPSTEGDIVGKAAHHEIVTLVEKTDDSWWKIKTNDGEEGYAYAQYLSPV is greater than or equal to -0.3
Reply text: true (1)

Inquiry: Tell me whether soluble fraction (log2) is at least -0.3 here: HMGSNLSFDLSQIIASRYQEKAAELGLTAPSLARTDLSPQEQATAEVVARAIIADYYDQRVAPFNDLIPQ
Reply text: false (0)

Inquiry: Can HMIYSKSDLELFGIKKIDVMEENILMLILSEYELDQTPKNILIDEAVRLSKKFGADNAYKFVNATLDTLL be said to have soluble fraction (log2) at or above -0.3?
Reply text: false (0)

Inquiry: Is it the case that HMTQRRLQSELDSIPGVGAGTRTKLLRTLGSVDAVLRASEAELLAAGANRRQVASIQAHAAAVER has soluble fraction (log2) reaching or exceeding -0.3?
Reply text: true (1)

Inquiry: Can HMNKWMQLASEEDKKLFNEAPKEIQDSITESAKFFDIRTKADVDTFWANTGLRQMKQQAMLNESFVNEY be said to have soluble fraction (log2) at or above -0.3?
Reply text: true (1)

Inquiry: Hello, I need to know if HMFEYDEIMEQSVPKIAWGSLLTIMKKASSHKEMLWYINETYKNGWSRSMVLNQIAMASYERSLIE has measured soluble fraction (log2) not below -0.3. Thanks!
Reply text: false (0)

Inquiry: Item HMDKKIVGVNAGKVWQALNEVTEISIVELAEKLNLSVESTALAAGWLAREDQISIERKNGTIELQRKN with soluble fraction (log2) of -0.3 or above?
Reply text: true (1)

Inquiry: Could you tell me if the measured soluble fraction (log2) of HMITLPDFVGKDVETVKAWAKENGITLIVNKVEDSAKKDTVISQTPTTYDYSKIMKGSSFTVNVAKE reaches -0.3 or more?
Reply text: true (1)
